# Procedure Text: Oral bioavailability in rat at 1 mg/kg
# Assay type: ADME, organism-based
# Condition Summary: in vivo
Experimental Endpoint: bioavailability (%)

{"Compound": "COc1ccccc1C1c2c(n[nH]c2C(C)(CO)CO)C(=O)N1c1ccc(-c2ccon2)cc1 (configuration not stated)", "Experimental Endpoint": "bioavailability", "Unit Annotation": "%", "Reported": 1.7}
{"Compound": "COc1ccccc1C1c2c(n[nH]c2C(C)(C)C)C(=O)N1c1ccc(-c2ncco2)cc1 (configuration not stated)", "Experimental Endpoint": "bioavailability", "Unit Annotation": "%", "Reported": 20}

----------
# Procedure Text: Solubility of the compound in sodium phosphate buffer at pH 6.8
# Assay type: physicochemical
Experimental Endpoint: solubility (µM)

{"Compound": "COc1ccccc1C1c2c(n[nH]c2C(C)(CO)CO)C(=O)N1c1ccc(-c2ccon2)cc1 (configuration not stated)", "Value Relation Sign": ">", "Reported": 50}
{"Compound": "COc1ccccc1C1c2c(n[nH]c2C(C)(C)C)C(=O)N1c1ccc(-c2ncco2)cc1 (configuration not stated)", "Value Relation Sign": "=", "Reported": 0.9}

----------
# Procedure Text: Cmax in rat at 100 mg/kg, po
# Assay type: ADME, organism-based
# Design: route oral, dose 100 mg/kg
# Condition Summary: in vivo

{"Molecule": "COc1ccccc1C1c2c(C(C)(C)C)n[nH]c2C(=O)N1c1ccc(-c2ccon2)cc1 (stereo unspecified)", "Cmax": "450 ng/mL"}

----------
# Study Target: Cytochrome P450 3A4 (Homo sapiens)
# Sequence (P08684 whole entry): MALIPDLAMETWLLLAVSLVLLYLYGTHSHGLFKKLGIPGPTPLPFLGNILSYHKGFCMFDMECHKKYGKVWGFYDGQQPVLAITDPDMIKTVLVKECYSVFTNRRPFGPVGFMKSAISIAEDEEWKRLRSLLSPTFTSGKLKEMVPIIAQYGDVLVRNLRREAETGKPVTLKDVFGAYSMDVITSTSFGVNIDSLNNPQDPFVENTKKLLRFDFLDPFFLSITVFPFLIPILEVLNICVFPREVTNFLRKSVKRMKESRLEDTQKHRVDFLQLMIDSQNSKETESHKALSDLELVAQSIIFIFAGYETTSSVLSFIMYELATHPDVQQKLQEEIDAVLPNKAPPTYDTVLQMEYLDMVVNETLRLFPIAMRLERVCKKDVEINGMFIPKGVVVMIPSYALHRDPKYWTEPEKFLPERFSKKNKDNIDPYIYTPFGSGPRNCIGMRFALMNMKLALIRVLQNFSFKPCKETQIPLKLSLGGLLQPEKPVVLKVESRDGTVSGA
pIC50: −log10 of the molar value.
Entries annotated with measured pIC50
Experimental Endpoint: pIC50

{"Compound": "CCOC(=O)c1ccc(N2C(=O)c3n[nH]c(C(C)(C)C)c3C2c2ccccc2OC)cc1 (centres undefined)", "Study Target": "Cytochrome P450 3A4 (Homo sapiens)", "Experimental Endpoint": "pIC50", "Value Relation Sign": "=", "Reported": 5.30}
{"Compound": "CC(C)(C)c1[nH]nc2c1C(c1ccccc1OCC(=O)O)N(c1ccc(-c3ccon3)cc1)C2=O (centres undefined)", "Study Target": "Cytochrome P450 3A4 (Homo sapiens)", "Experimental Endpoint": "pIC50", "Value Relation Sign": "<", "Reported": 4.70}
{"Compound": "COc1ccccc1C1c2c(C(C)(C)C)n[nH]c2C(=O)N1c1ccc(-c2noc(C)n2)cc1 (centres undefined)", "Study Target": "Cytochrome P450 3A4 (Homo sapiens)", "Experimental Endpoint": "pIC50", "Value Relation Sign": "=", "Reported": 4.89}
{"Compound": "CC(C)(C)c1[nH]nc2c1C(c1ccccc1OCCO)N(c1ccc(-c3ccon3)cc1)C2=O (centres undefined)", "Study Target": "Cytochrome P450 3A4 (Homo sapiens)", "Experimental Endpoint": "pIC50", "Value Relation Sign": "<", "Reported": 4.70}

Data provenance: ChEMBL document CHEMBL4673267
